Give measured Ki for each item. Keep answers brief.
Biological target: Bcl-xL (Homo sapiens)
Sequence (Q07817 whole entry): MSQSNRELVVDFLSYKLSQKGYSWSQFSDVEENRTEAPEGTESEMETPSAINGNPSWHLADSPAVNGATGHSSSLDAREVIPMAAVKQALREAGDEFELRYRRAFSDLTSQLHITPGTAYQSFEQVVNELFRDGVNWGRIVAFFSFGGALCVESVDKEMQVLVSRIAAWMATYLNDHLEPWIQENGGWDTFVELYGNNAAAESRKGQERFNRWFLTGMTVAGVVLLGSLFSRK
Assay: Time Resolved-Fluorescence Resonance Energy Transfer (TR-FRET) binding assay, competition with probe F-Bak
Conditions: without HS; read-out: Bcl-xL Binding Ki

Let me know recorded Ki for Cc1c(-c2ccc(N3CCc4cccc(C(=O)Nc5nc6ccccc6s5)c4C3)nc2C(=O)O)cnn1CC12CC3(C)CC(C)(C1)CC(OCCN(CCCP(=O)(O)O)C1CCNCC1)(C3)C2 [Example 1.26] , thanks.
< 1 pM

Let me know recorded Ki for Cc1c(-c2ccc(N3CCc4c(CC5O[C@H](CO)[C@@H](O)[C@H](O)[C@H]5O)ccc(C(=O)Nc5nc6ccccc6s5)c4C3)nc2C(=O)O)cnn1CC12CC3(C)CC(C)(C1)CC(OCCN)(C3)C2 (some centres unmarked) [Example 1.55] , thanks.
39 pM

Let me know recorded Ki for Cc1c(-c2ccc(N3CCc4cccc(C(=O)Nc5nc6ccccc6s5)c4C3)nc2C(=O)O)cnn1CC12CC3(C)CC(C)(C1)CC(OCCNC(=O)[C@H](CC(=O)O)NCCC(=O)O)(C3)C2 [Example 1.32] , thanks.
< 1 pM

Let me know recorded Ki for Cc1c(-c2ccc(-c3ccc4c(c3)N(C(=O)Nc3nc5ccccc5s3)CCC4)nc2C(=O)O)cnn1CC12CC3(C)CC(C)(C1)CC(OCCNCCS(=O)(=O)O)(C3)C2 [Example 1.24] , thanks.
< 1 pM

Let me know recorded Ki for Cc1c(-c2ccc(N3CCc4cccc(C(=O)Nc5nc6ccccc6s5)c4C3)nc2C(=O)O)cnn1CC12CC3(C)CC(C)(C1)CC(OCCNCCS(=O)(=O)N[C@H]1C(O)O[C@H](CO)[C@@H](O)[C@@H]1O)(C3)C2 (some centres unmarked) [Example 1.3] , thanks.
1.1 pM
